- Tested on: HeLa cells
- test_summary: Cytotoxic effects and impact on cell proliferation in HeLa cells
- Type: cell-based
- run_parameters: 12 μM, 24 h
value_kind: dead cells (%)
Answers are plain numbers, in %.

Some compounds with known dead cells results, for comparison:
O=C(Nc1noc(-c2c(F)c(F)c(F)c(F)c2F)n1)c1c(F)c(F)c(F)c(F)c1F; 5
O=C(O)c1cccc(-c2noc(-c3ccccc3F)n2)c1; 4
CCOC(=O)c1noc(-c2ccccc2)n1; 2

Requested read-out: dead cells. Entry: CC(=O)Nc1noc(C)n1
7

----------
- Tested on: HeLa cells
- test_summary: Cytotoxic effects and impact on cell proliferation in HeLa cells
- Type: cell-based
- run_parameters: 12 μM, 72 h
value_kind: dead cells
Provide a numeric answer, followed by its unit.

O=C(Nc1noc(-c2c(F)c(F)c(F)c(F)c2F)n1)c1c(F)c(F)c(F)c(F)c1F; 2%

Need dead cells for each of these molecules.
1. O=C(O)c1cccc(-c2noc(-c3ccccc3F)n2)c1
2. CC(=O)Nc1noc(C)n1
3. CCOC(=O)c1noc(-c2ccccc2)n1

1. 7%
2. 6%
3. 4%
